Lab note: pIC50 readings collected with UniProt Q92918 for the following compounds.
Sequence (Q92918 whole entry, species assumed): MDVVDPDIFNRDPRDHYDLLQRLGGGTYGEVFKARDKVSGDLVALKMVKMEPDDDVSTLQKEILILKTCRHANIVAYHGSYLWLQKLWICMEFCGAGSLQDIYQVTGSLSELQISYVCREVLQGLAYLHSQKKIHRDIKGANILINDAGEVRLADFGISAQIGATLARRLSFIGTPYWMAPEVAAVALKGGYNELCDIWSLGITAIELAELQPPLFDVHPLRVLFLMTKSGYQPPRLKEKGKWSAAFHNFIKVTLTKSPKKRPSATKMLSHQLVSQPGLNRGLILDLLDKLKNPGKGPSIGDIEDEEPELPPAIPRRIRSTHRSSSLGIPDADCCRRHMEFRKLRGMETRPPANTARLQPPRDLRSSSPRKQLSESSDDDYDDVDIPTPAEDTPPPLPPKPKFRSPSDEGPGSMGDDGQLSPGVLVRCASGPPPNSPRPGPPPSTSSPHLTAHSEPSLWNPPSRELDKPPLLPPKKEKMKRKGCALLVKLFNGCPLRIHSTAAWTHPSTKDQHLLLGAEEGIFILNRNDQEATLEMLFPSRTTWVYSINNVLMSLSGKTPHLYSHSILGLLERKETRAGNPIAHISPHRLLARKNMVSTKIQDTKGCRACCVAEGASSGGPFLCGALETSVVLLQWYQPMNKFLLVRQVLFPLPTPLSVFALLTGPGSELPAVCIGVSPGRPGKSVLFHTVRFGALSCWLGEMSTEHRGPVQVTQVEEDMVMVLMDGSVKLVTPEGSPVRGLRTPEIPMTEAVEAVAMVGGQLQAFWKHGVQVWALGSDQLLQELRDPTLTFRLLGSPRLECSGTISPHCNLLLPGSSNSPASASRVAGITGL
pIC50: −log10 of the molar value.

Reference set, count: 3
>>> readout_value("CNC(=O)c1ccccc1Nc1nc(Nc2cc3c(cc2OC)CCN(C)C3)ncc1Cl")
"8.00 to 8.30"
>>> readout_value("[2H]C1([2H])c2cc(Nc3ncc(Cl)c(Nc4ccccc4P(C)(C)=O)n3)c(OC)cc2CCN1C(C)C")
"> 8.30"
>>> readout_value("COc1cc2c(cc1Nc1ncc(Cl)c(Nc3ccccc3P(C)(C)=O)n1)C(=O)N(C)CCC2")
"5.00 to 7.00"

Problem: Please look at COc1cc2c(cc1Nc1ncc(Cl)c(Nc3ccccc3P(C)(C)=O)n1)CCN(C)CC2 and tell me its recorded pIC50 on UniProt Q92918.
Result: 7.00 to 8.00

Problem: Name the recorded pIC50 of CP(C)(=O)c1ccccc1Nc1nc(Nc2cc3c(cc2C(F)(F)F)CCNC3)ncc1Cl , assay system UniProt Q92918.
Result: 7.00 to 8.00

Problem: Fetch value of pIC50 on UniProt Q92918 for COc1cc2c(cc1Nc1ncc(-c3cnn(C)c3)c(Nc3ccccc3P(C)(C)=O)n1)CN(C)CC2 .
Result: 5.00 to 7.00

Problem: Please report the measured pIC50 for COc1cc2c(cc1Nc1ncc(Cl)c(Nc3ccccc3P(C)(C)=O)n1)CNCC2(C)C tested on UniProt Q92918.
Result: > 8.30

Problem: Please look at COc1cc2c(cc1Nc1ncc(OC)c(Nc3ccccc3P(C)(C)=O)n1)CN(C)CC2 and tell me its recorded pIC50 on UniProt Q92918.
Result: 8.00 to 8.30

Problem: With UniProt Q92918 as the test system, provide measured pIC50 for this compound: CN1CCc2cc(Cl)c(Nc3ncc(Cl)c(Nc4ccccc4P(C)(C)=O)n3)cc2C1
Result: > 8.30

Problem: Write pIC50 of COc1cc2c(cc1Nc1nccc(Nc3ccccc3P(C)(C)=O)n1)CN(C)CC2 ; system used: UniProt Q92918
Result: 5.00 to 7.00

Problem: Quote pIC50 with test system UniProt Q92918 for COc1cc2c(cc1Nc1ncc(Cl)c(Nc3ccccc3P(C)(C)=O)n1)[C@H](N(C)C)CCC2
Result: 7.00 to 8.00

Problem: Print UniProt Q92918 pIC50 for COc1cc2c(cc1Nc1ncc(Cl)c(Nc3ccccc3P(C)(C)=O)n1)C(=O)NCC2 .
Result: 5.00 to 7.00

Problem: Fill in pIC50 for CN1CCc2cc(F)c(Nc3ncc(Cl)c(Nc4ccccc4P(C)(C)=O)n3)cc2C1 tested with UniProt Q92918.
Result: > 8.30

Problem: Please report pIC50 with UniProt Q92918 for item COc1cc2c(cc1Nc1ncc(Cl)c(Nc3ccccc3P(C)(C)=O)n1)C(C)N(C)CC2 (stereo not drawn) .
Result: > 8.30

Problem: Given CCOc1cc2c(cc1Nc1ncc(Cl)c(Nc3ccccc3P(C)(C)=O)n1)CN(C)CC2 , report its pIC50 on UniProt Q92918.
Result: 7.00 to 8.00
